Assay: Plasma and brain tumor concentration in mice bearing intracranial CR^2518 tumors (LC/MS/MS)
Assay type: in vivo
Conditions: female, BALB/c nude, mouse, brain tumor, single IV dose 30 mg/kg, mice bearing CR^2518 brain tumors, read-out: brain tumor concentration
Property Label: concentration at 5 h (ng/g)
Give a bare numeral; the unit ng/g is implied.

Query :: So what's the measured concentration at 5 h for this one? CCC1(C(=O)NC(C)C)CCN(c2ccc(-c3nc(-c4cnn([C@H]5CC[C@H](N6CCC(c7ccc(NC8CCC(=O)NC8=O)cc7F)CC6)CC5)c4)cn4ncc(C#N)c34)cn2)CC1 (single isomer, unassigned) [Compound 122]
Result :: 2840
